Test: Study on in vivo pharmacokinetics in mice
Set-up: species or system mouse
Conditions: male, ICR, mouse, oral; mice, intragastric, 10 mg/kg, plasma at 8 h; read-out: C8 h
outcome.measure: concentration at 8 h (µg/mL)
The reply should contain only the number, in µg/mL.

Return value of concentration at 8 h for input C[C@H]1CN(C2COC2)CCN1c1ccc(Nc2cc(-c3ccnc(-n4ccn5c6c(cc5c4=O)CC(C)(C)C6)c3CO)cn(C)c2=O)nc1 , no commentary.
0.555

----------
Target: BTK recombinant protein (Homo sapiens (Human), UniProt Q06187)
Sequence (Q06187 whole entry): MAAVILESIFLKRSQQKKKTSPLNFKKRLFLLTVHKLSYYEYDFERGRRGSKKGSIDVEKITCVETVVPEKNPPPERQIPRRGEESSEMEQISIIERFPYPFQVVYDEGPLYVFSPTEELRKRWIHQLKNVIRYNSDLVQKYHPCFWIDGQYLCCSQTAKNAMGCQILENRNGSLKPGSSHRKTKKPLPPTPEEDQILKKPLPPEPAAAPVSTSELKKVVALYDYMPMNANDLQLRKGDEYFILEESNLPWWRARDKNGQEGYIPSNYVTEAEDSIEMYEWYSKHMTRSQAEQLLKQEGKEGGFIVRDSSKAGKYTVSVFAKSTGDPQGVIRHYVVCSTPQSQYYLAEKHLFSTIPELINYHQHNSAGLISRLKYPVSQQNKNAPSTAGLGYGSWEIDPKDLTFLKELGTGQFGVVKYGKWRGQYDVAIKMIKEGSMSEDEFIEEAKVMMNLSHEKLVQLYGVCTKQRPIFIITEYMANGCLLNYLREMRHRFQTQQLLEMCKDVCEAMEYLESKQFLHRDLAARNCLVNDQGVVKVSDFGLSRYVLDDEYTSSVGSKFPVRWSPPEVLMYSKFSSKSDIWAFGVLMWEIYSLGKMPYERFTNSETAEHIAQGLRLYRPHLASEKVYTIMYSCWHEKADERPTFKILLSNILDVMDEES
Assay: Determination of biochemical BTK (Z'-LYTE kinase assay)
outcome.measure: IC50 (nM)
Write the answer as a number in nM, unit excluded.

For the molecule C[C@H]1CN(C2COC2)CCN1c1ccc(Nc2cc(-c3ccnc(-n4ccn5c6c(cc5c4=O)CC(C)(C)C6)c3CO)nn(C)c2=O)nc1 [Compound 22] , report IC50.
10

Entry C[C@H]1CN(C2COC2)CCN1c1ccc(Nc2nc(-c3ccnc(-n4ccn5c6c(cc5c4=O)CC(C)(C)C6)c3CO)cn(C)c2=O)nc1 [Compound 20] needs its IC50 filled in; supply it.
27

Please report the measured IC50 for CCn1cc(Nc2cc(-c3ccnc(-n4ccn5c6c(cc5c4=O)CC(C)(C)C6)c3CO)nn(C)c2=O)nn1 [Compound 25]
8

Return value of IC50 for input Cn1cc(-c2ccnc(-n3ccn4c5c(cc4c3=O)CC(C)(C)C5)c2CO)cc(Nc2ccc(N3CCN(C4COC4)CC3=O)cn2)c1=O [Compound 34] , no commentary.
5

----------
Exercise: state measured MLM, percentage of remaining compound after 30 minutes of incubation for each of the compounds provided.
Experiment: Stability test in liver microsomes (mouse)
Type: in vitro ADME
Conditions: mouse liver microsomes, 1 μM compound, 30 min
Only the number, expressed in %, is required.

Retrieve MLM, percentage of remaining compound after 30 minutes of incubation measured for CC1CCc2cc3c(=O)n(-c4nccc(-c5cc(Nc6ccc(N7CCN(C8COC8)C[C@@H]7C)cn6)c(=O)n(C)c5)c4CO)ccn3c2C1 (mixture of isomers) [Compound 78] and print it.
83.4

Return reported MLM, percentage of remaining compound after 30 minutes of incubation. Input compound: C[C@H]1CN(C2COC2)CCN1c1ccc(Nc2cc(-c3ccnc(-n4ccn5c6c(cc5c4=O)CCC(F)(F)C6)c3CO)cn(C)c2=O)nc1 [Compound 56]
89.5

Output measured MLM, percentage of remaining compound after 30 minutes of incubation for this item: C[C@H]1CN(C2COC2)CCN1c1ccc(Nc2cc(-c3ccnc(-n4ccn5c6c(cc5c4=O)CCC6)c3CO)cn(C)c2=O)nc1 [Compound 64]
95.6

Provide measured MLM, percentage of remaining compound after 30 minutes of incubation value, entry: C[C@H]1CN(C2COC2)CCN1c1ccc(Nc2cc(-c3ccnc(-n4ccn5c6c(cc5c4=O)CC(C)(C)C6)c3CO)nn(C)c2=O)nc1 [Compound 22]
83.4

Answer with the recorded MLM, percentage of remaining compound after 30 minutes of incubation for the compound listed here: C[C@H]1CN(C2COC2)CCN1c1ccc(Nc2cc(-c3ccnc(-n4ccn5c(cc6ccccc65)c4=O)c3CO)cn(C)c2=O)nc1 [Compound 74]
97.5

Please report MLM, percentage of remaining compound after 30 minutes of incubation for the following compound: Cn1cc(-c2ccnc(-n3ccn4c5c(cc4c3=O)CC(C)(C)C5)c2CO)cc(Nc2ccc(N3CCN(C4COC4)CC3)cn2)c1=O [Compound 9]
95.7

Find the measured MLM, percentage of remaining compound after 30 minutes of incubation of C[C@H]1CN(C2COC2)CCN1c1cnc(Nc2cc(-c3ccnc(-n4ccn5c6c(cc5c4=O)CC(C)(C)C6)c3CO)cn(C)c2=O)nc1 [Compound 44] and report it.
93.1

Provide MLM, percentage of remaining compound after 30 minutes of incubation value for the following compound: C[C@H]1CN(C2COC2)CCN1c1ccc(Nc2cc(-c3ccnc(-n4cnn5c6c(cc5c4=O)CC(C)(C)C6)c3CO)cn(C)c2=O)nc1 [Compound 63]
85.8

Give MLM, percentage of remaining compound after 30 minutes of incubation for C[C@H]1CN(C2COC2)CCN1c1ccc(Nc2cc(-c3ccnc(N4CCn5c(cc6c5CC(C)(C)C6)C4=O)c3CO)cn(C)c2=O)nc1 [GDC-0853, fenebrutinib, reference compound]
76.3

Identify measured MLM, percentage of remaining compound after 30 minutes of incubation associated with C[C@H]1CN(C2COC2)CCN1c1ccc(Nc2cc(-c3ccnc(-n4ccn5c6c(cc5c4=O)CC(C)(C)C6)c3CO)cn(C)c2=O)nc1 [Compound 19]
91.8

For the compound C[C@@H]1CN(c2ccc(Nc3cc(-c4ccnc(-n5ccn6c7c(cc6c5=O)CCC7)c4CO)cn(C)c3=O)nc2)[C@@H](C)CN1C1COC1 [Compound 2] , give its reported MLM, percentage of remaining compound after 30 minutes of incubation.
90.5

Supply recorded MLM, percentage of remaining compound after 30 minutes of incubation for C[C@H]1CN(C2COC2)CCN1c1ccc(Nc2cc(-c3ccnc(-n4ccn5c(cc6cc(F)ccc65)c4=O)c3CO)cn(C)c2=O)nc1 [Compound 75] here.
83.0
